- Assay remarks: physchem
- Condition parameters: water, pH 7, water
Outcome measure: solubility (mg/mL)
Give bare numbers, in mg/mL.

For the molecule COc1cc(OC)nc(NC(=O)NS(=O)(=O)c2ncccc2C(=O)N(C)C)n1 [nicosulfuron] , what solubility is on record?
12
